Measured log10 of IC50, listed per entry.
system: Leishmania aethiopica promastigotes; experiment: In vitro antipromastigote (antileishmanial) assay, AlamarBlue; format: cell-based; conditions: Leishmania aethiopica promastigotes; molar form of the µg/mL values; read-out: IC50 Values (µM/mL), antipromastigote activity
experimental_endpoint: log10 of IC50 (log10 of the value in µM)

compound=Cc1ccc(-c2nn(-c3ccc(S(N)(=O)=O)cc3)cc2/C=N/N)cc1 reported_value=0.83
compound="CCCCCCCCCCCCCCCCOP(=O)([O-])OCC[N+](C)(C)C [Miltefosine, hexadecylphosphocholine, reference compound]" reported_value=0.89
compound=CN(C)C=NS(=O)(=O)c1ccc(-n2cc(/C=N/NC(=O)c3ccccc3O)c(-c3ccc(Cl)cc3)n2)cc1 reported_value=-0.35
compound=O=C(NN=Cc1cn(-c2ccc(Br)cc2)nc1-c1ccccc1)c1ccccc1O reported_value=-0.59
compound=Cc1ccc(-n2cc(C=NNC(=O)c3ccccc3O)c(-c3ccccc3)n2)cc1 reported_value=1.02
compound="C[C@@H]1[C@H](O)[C@@H](C)/C=C/C=C/C=C/C=C/C=C/C=C/C=C/[C@H](O[C@@H]2O[C@H](C)[C@@H](O)[C@H](N)[C@@H]2O)C[C@@H]2O[C@](O)(C[C@@H](O)C[C@@H](O)[C@H](O)CC[C@@H](O)C[C@@H](O)CC(=O)O[C@H]1C)C[C@H](O)[C@H]2C(=O)O [Amphotericin B, Amphotericin B deoxycholate, reference compound]" reported_value=-1.46
compound=Cc1ccc(-c2nn(-c3ccc(S(=O)(=O)N=CN(C)C)cc3)cc2C=NN=Cc2cn(-c3ccc(S(=O)(=O)N=CN(C)C)cc3)nc2-c2ccc(C)cc2)cc1 reported_value=-0.36
compound=Cc1ccc(-c2nn(-c3ccc(S(=O)(=O)N=CN(C)C)cc3)cc2/C=N/NC(=O)c2ccccc2O)cc1 reported_value=-0.55

----------
tested on: Leishmania aethiopica promastigotes; assay: In vitro antipromastigote (antileishmanial) assay, AlamarBlue; type: cell-based; conditions: Leishmania aethiopica, read-out: IC50 Values (µM/mL), antipromastigote activity
experimental_endpoint: IC50 (µM)

compound="Cc1ccc(-c2nn(-c3ccc(S(=O)(=O)N=CN(C)C)cc3)cc2/C=N/Nc2ccccc2)cc1 [Compound 13]" reported_value=0.033

----------
experiment: In vitro cytotoxicity test; assay type: cell-based, African green monkey; conditions: African green monkey, VERO cells (African green monkey kidney cells); normal VERO cells, 72 h, formazan OD
Catalogue of CC50 at 72 h values
experimental_endpoint: CC50 at 72 h (µM)

compound=Cc1ccc(-c2nn(-c3ccc(S(=O)(=O)N=CN(C)C)cc3)cc2/C=N/Nc2ccccc2)cc1 experimental_endpoint="CC50 at 72 h" reported_value=118
compound="CCCCCCCCCCCCCCCCOP(=O)([O-])OCC[N+](C)(C)C [Miltefosine, hexadecylphosphocholine, reference compound]" experimental_endpoint="CC50 at 72 h" reported_value=99.7
